Recorded values, source PubChem BioAssay (NCATS).

- TEST DESCRIPTION: Quantitative High-Throughput drug screen in 47 multiple myeloma cell lines against the NCATS MIPE library collection: KMS27_JCRB cell viability assay (AID 1918970); further: nearly all actives have a fitted effect of over 30% in size; further: potency means the concentration at half of the fitted maximal effect
- MEASUREMENT SETUP: KMS27 myeloma cells, CellTiter-Glo ATP viability, 48 h
Results filed as inconclusive are left out. Calls of active or inactive are those of the source. The call rests on the fitted dose curve; in most records, active means well fitted cell-killing curve with a large enough effect; inconclusive means small, poorly fitted or top-dose-only effect, or effect the other way; inactive means no such curve, though single readings can be large or run the other way.
ASSAY ENDPOINT: Potency

>>> reported_value("C=C(C)[C@@H]1CC[C@]2(C)CC[C@]3(C)[C@H](CC[C@@H]4[C@@]5(C)CC[C@H](O)C(C)(C)[C@H]5CC[C@]43C)[C@@H]12")
"inactive"
>>> reported_value("CC(C)(C)[C@H](NC(=O)c1ccc(N)c(Cl)c1)C(=O)N1CCC[C@@H]1C(=O)N[C@H](C#N)CC(=O)O")
"1.05 µM (active)"
>>> reported_value("C=CC(=O)N1CCc2ccc(-n3c(=O)ccc4cnc5ccc(-c6cnn(C)c6)cc5c43)cc21")
"2.96 µM (active)"
>>> reported_value("CC(C)Oc1ccc(C(=O)N[C@H](CNC(=O)CN(C)C)Cc2ccc(-c3cn4cccc([C@H](C)O)c4n3)cc2)cc1Cl")
"0.833 µM (active)"
>>> reported_value("COc1cc(CCc2cc(NC(=O)c3ccc(N4C[C@@H](C)N[C@@H](C)C4)cc3)n[nH]2)cc(OC)c1")
"18.7 µM (active)"

For every item below, please supply its Potency.
1. Cc1[nH]c(C=C2C(=O)Nc3ccccc32)c(C)c1CCC(=O)O
2. CC(=O)O[C@H]1C[C@@H]2CC[C@H]3[C@H]4C[C@H]([N+]5(C)CCCCC5)[C@@H](OC(C)=O)[C@@]4(C)CC[C@@H]3[C@@]2(C)C[C@H]1[N+]1(C)CCCCC1

A.
1. 5.9 µM (active)
2. inactive
